For each entry below, report its logD value.
- ASSAY EXPLANATION: Log D shake flask method (octanol / PBS pH 7.4, HPLC)
- Format: physicochemical
- REPORTED CONDITIONS: octanol/phosphate-buffered saline (PBS); octanol / PBS pH 7.4, shake flask
- Protocol: In order to classify the inventive compounds according to their lipophilicity, Log D values (distribution coefficient) were determined by means of the well-established shake flask method, measuring the partition of a compound between an octanol and phosphate-buffered saline (PBS, pH 7.4) by HPLC.

Prompt: Give logD for COC(=O)/C=C/CC[C@H](NC(=O)c1ccnn1C)C(=O)Nc1cccn(CC(=O)NC23CC4CC(C)(CC(C)(C4)C2)C3)c1=O
Response: 1 to 3

Prompt: Note down logD recorded for COC(=O)/C=C/CC[C@H](NC(=O)c1sc(C(F)(F)F)nc1C)C(=O)Nc1cccn(CC(=O)NC2C3CC4CC(C3)CC2C4)c1=O (stereo partly shown)
Response: 3 to 5

Prompt: Using the record for COC(=O)/C=C/CC[C@H](NC(=O)c1cc(Cl)sc1Cl)C(=O)Nc1cccn(CC(=O)N[C@H]2C[C@H]3CC[C@]2(C)C3(C)C)c1=O , state its measured logD.
Response: 3 to 5

Prompt: Give recorded logD. O=C(/C=C/CC[C@H](NC(=O)c1nc(Cl)sc1Cl)C(=O)Nc1cccn(CC(=O)NC23CC(C2)C3)c1=O)NCc1ccccc1
Response: 1 to 3

Prompt: Please give the documented logD of Cc1oc(Br)cc1C(=O)N[C@@H](CC/C=C/C(=O)Nc1ccccc1)C(=O)Nc1cccn(CC(=O)NC23CC(C2)C3)c1=O
Response: 1 to 3

Prompt: Please indicate logD recorded for COC(=O)/C=C/CC[C@H](NC(=O)c1cc(Br)cs1)C(=O)Nc1cccn(CC(=O)NC2C3CC4CC(C3)CC2C4)c1=O (stereo partly shown)
Response: 3 to 5

Prompt: Output measured logD for this item: COC(=O)/C=C/CC[C@H](NC(=O)c1oc2ccccc2c1C)C(=O)Nc1cccn(CC(=O)N[C@H]2C[C@H]3CC[C@]2(C)C3(C)C)c1=O
Response: 3 to 5

Prompt: Give the value of logD reported for the following: COC(=O)/C=C/CC[C@H](NC(=O)c1snnc1C)C(=O)Nc1cccn(CC(=O)NC23CC4(C)CC(C)(CC(C)(C4)C2)C3)c1=O
Response: 3 to 5

Prompt: # return recorded logD for input COC(=O)/C=C/CC[C@H](NC(=O)c1oc2ccccc2c1C)C(=O)Nc1cccn(CC(=O)N[C@@H]2C[C@H]3CC[C@]2(C)C3(C)C)c1=O
Response: 3 to 5

Prompt: Fill in reported logD for this entry: COC(=O)/C=C/CC[C@H](NC(=O)c1cncn1C)C(=O)Nc1cccn(CC(=O)NC2C3CC4CC(C3)CC2C4)c1=O (stereo partly shown)
Response: 1 to 3

Prompt: For COC(=O)/C=C/CC[C@H](NC(=O)c1ccnn1C)C(=O)Nc1cccn(CC(=O)N[C@@H]2C[C@@H]3CC[C@H]2C3)c1=O , write its logD.
Response: 1 to 3

Prompt: Output logD of COC(=O)/C=C/CC[C@H](NC(=O)c1csc(Br)c1)C(=O)Nc1cccn(CC(=O)NC2C3CC4CC(C3)CC2C4)c1=O (stereo partly shown)
Response: 3 to 5

Prompt: For the molecule COC(=O)/C=C/CC[C@H](NC(=O)c1cnnn1C)C(=O)Nc1cccn(CC(=O)N[C@@H]2C[C@H]3CC[C@@H]2C3)c1=O , give its reported logD.
Response: < 1

Prompt: Please give the documented logD of COC(=O)/C=C/CC[C@H](NC(=O)c1nn[nH]n1)C(=O)Nc1cccn(CC(=O)NC2C3CC4CC(C3)CC2C4)c1=O (stereo partly shown)
Response: 1 to 3

Prompt: Please list logD recorded for the molecule COC(=O)/C=C/CC[C@H](NC(=O)c1ccc2occc2c1)C(=O)Nc1cccn(CC(=O)NC2C3CC4CC2CC(NC(C)=O)(C4)C3)c1=O (stereo partly shown)
Response: 1 to 3

Prompt: For the molecule COC(=O)/C=C/CC[C@H](NC(=O)c1oc2ccccc2c1C)C(=O)Nc1cccn(CC(=O)NC(C)C23CC4CC(CC(C4)C2)C3)c1=O (stereo partly shown) , report logD.
Response: 3 to 5

Prompt: Assign logD to the following record: COC(=O)/C=C/CC[C@H](NC(=O)c1oc2ccccc2c1C)C(=O)Nc1cccn(CC(=O)N[C@@H]2C[C@@H]3C[C@H]([C@H]2C)C3(C)C)c1=O
Response: 3 to 5

Prompt: Given the molecule COC(=O)/C=C/CC[C@H](NC(=O)c1oc2ccccc2c1C)C(=O)Nc1cccn(CC23CC4CC(CC(C4)C2)C3)c1=O , write its reported logD.
Response: 3 to 5

Prompt: Answer with the recorded logD for the molecule listed here: CC(=O)/C=C/CC[C@H](NC(=O)c1ncn(C)n1)C(=O)Nc1cccn(CC(=O)NC2C3CCCC2CC3)c1=O (stereo partly shown)
Response: < 1

Prompt: Note down logD recorded for COC(=O)/C=C/CC[C@H](NC(=O)c1nonc1N)C(=O)Nc1cccn(CC(=O)NC23CC(C2)C3)c1=O
Response: < 1

Prompt: Supply recorded logD for COC(=O)/C=C/CC[C@H](NC(=O)c1oc2ccccc2c1C)C(=O)Nc1cccn(CC(=O)NC23CC4CC(CC(F)(C4)C2)C3)c1=O here.
Response: 3 to 5

Prompt: Name the recorded logD of the molecule listed here: COC(=O)/C=C/CC[C@H](NC(=O)[C@H]1CCNC1)C(=O)Nc1cccn(CC(=O)NC2C3CC4CC(C3)CC2C4)c1=O (stereo partly shown)
Response: 1 to 3

Prompt: Write down logD measured for item COC(=O)/C=C/CC[C@H](NC(=O)c1cnnn1C)C(=O)Nc1cccn(CC(=O)NC23CC4CC(C)(CC(C)(C4)C2)C3)c1=O
Response: 1 to 3

Prompt: Return reported logD. Input molecule: COC(=O)/C=C/CC[C@H](NC(=O)c1coc2ccccc12)C(=O)Nc1cccn(CC(=O)NC2C3CC4CC(C3)CC2C4)c1=O (stereo partly shown)
Response: 3 to 5

Prompt: Entry COC(=O)/C=C/CC[C@H](NC(=O)c1oc2ccccc2c1C)C(=O)Nc1cccn(CC(=O)NC23CC4CC(C2)C(F)(F)C(C4)C3)c1=O needs its logD filled in; supply it.
Response: 3 to 5
